Tested on: Escherichia coli TOP10;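 further: peptides expressed intracellularly from a pBAD plasmid library in pooled LB shake-flask culture, induced with 0.3% L-arabinose, DNA abundance read by NGS, three biological replicates, DESeq2 with apeglm shrinkage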
Assay: shrunken log2 fold change of peptide-encoding DNA abundance (4.5 h post-induction vs induction); higher = less antimicrobial activity (less host growth inhibition)
Conditions: time post-induction: 4.5 h; library: site-saturation at positions 5, 18, 19, 20
# cutoff -0.06 applies to shrunken log2 fold change; >= gives class 1, < gives class 0

INSERT INTO measurements (biopolymersequence, class) VALUES
  ('RRIRERPPRLPRPRPRPTRYPRP', 'class 0'),
  ('RRIRVRPPRLPRPRPRPMNEPRP', 'class 0'),
  ('RRIRWRPPRLPRPRPRPYLNPRP', 'class 0'),
  ('RRIRERPPRLPRPRPRPRYYPRP', 'class 0'),
  ('RRIRHRPPRLPRPRPRPYAQPRP', 'class 0'),
  ('RRIRTRPPRLPRPRPRPHIAPRP', 'class 0'),
  ('RRIRERPPRLPRPRPRPAWDPRP', 'class 1'),
  ('RRIRIRPPRLPRPRPRPLGPPRP', 'class 1'),
  ('RRIRVRPPRLPRPRPRPSQAPRP', 'class 1'),
  ('RRIRSRPPRLPRPRPRPCQDPRP', 'class 0'),
  ('RRIRVRPPRLPRPRPRPQWTPRP', 'class 0'),
  ('RRIRPRPPRLPRPRPRPFGVPRP', 'class 0'),
  ('RRIRMRPPRLPRPRPRPKHLPRP', 'class 1');

These measurements were taken from the supplement of paper PMC9112550.
